type: physicochemical; design: key: 1 = fibrils present; 0 non-fibrillar structures; conditions: TEM; 1 = fibrils present, 0 = non-fibrillar
reported_property: Fibril
Quick one: just the number, no unit, thanks!

Here's what some known entries look like.
KFKQFFINMWQ
1
RGDKIKIQINMC
1
KVKGVGK
0

**Q:** For `KKFQKKFQ` , what is its reported Fibril?
**A:** 0

**Q:** Let us now turn to `CKAKAQANMWQ`
**A:** 0

* * *

system: HIV-1 infection of TZM-bl cells; experiment: HIV-1 infectivity enhancement assay, β-galactosidase luminescence; format: cell-based; conditions: Feb2021 run; log10 of infectivity relative to EF-C
Below is a list of entries, each paired with its recorded Log10 of Rel to EFC (Feb2021) value.

Here's what some known entries look like.
KIKIQIN [JGB3]
-0.5766
CKFKFQF [BL4]
0.09083

Now, please, on to the next substance.
**Q:** For RGDKIKIQINMC [psis29] , what is its reported Log10 of Rel to EFC (Feb2021)?
**A:** 0.02911

Cited source: paper PMC10447463
